Where a SMILES comes first, the peptide text is derived from it. [ ]: non-standard residue; d: D form. β3hI = CC[C@H](C)[C@H](N)CC(=O)O; β3hF = N[C@H](CC(=O)O)Cc1ccccc1; 2Thi = N[C@@H](Cc1cccs1)C(=O)O
Please respond with reported IC50 for every item in the list.
Provide only the numeric value, understood in µM.

Provide the documented IC50 with ExoI (Escherichia coli, UniProt P04995) as the system for CC[C@H](C)[C@H](NC(=O)[C@H](CC(=O)O)NC(=O)[C@H](CC(=O)O)NC(=O)[C@H](CC(=O)O)NC(=O)C[C@H](Cc1ccccc1)NC(=O)[C@H](CC(=O)O)NC(C)=O)C(=O)N1CCC[C@H]1C(=O)N[C@@H](Cc1ccccc1)C(=O)O [β3-Phe2] (Ac-D[β3hF]DDDIPF-OH)
Sequence (P04995 whole entry): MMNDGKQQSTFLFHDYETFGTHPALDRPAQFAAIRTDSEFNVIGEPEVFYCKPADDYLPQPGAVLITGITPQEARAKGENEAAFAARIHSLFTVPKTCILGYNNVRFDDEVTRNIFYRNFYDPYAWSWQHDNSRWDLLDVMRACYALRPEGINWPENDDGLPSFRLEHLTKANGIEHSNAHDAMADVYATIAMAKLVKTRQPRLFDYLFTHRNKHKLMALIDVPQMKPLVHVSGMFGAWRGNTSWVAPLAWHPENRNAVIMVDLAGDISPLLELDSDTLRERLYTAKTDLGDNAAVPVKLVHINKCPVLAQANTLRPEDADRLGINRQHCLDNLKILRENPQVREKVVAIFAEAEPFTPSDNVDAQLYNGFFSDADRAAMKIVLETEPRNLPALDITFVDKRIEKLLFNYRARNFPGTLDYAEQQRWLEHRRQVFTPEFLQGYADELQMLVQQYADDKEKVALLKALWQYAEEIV
3.8

Provide the documented IC50 with ExoI (Escherichia coli, UniProt P04995) as the system for CC[C@H](C)[C@@H](CC(=O)N1CCC[C@H]1C(=O)N[C@@H](Cc1ccccc1)C(=O)O)NC(=O)[C@H](CC(=O)O)NC(=O)[C@H](CC(=O)O)NC(=O)[C@H](CC(=O)O)NC(=O)[C@H](Cc1ccccc1)NC(=O)[C@H](CC(=O)O)NC(C)=O [β3-Ile6] (Ac-DFDDD[β3hI]PF-OH)
11.3

Provide the documented IC50 with ExoI (Escherichia coli, UniProt P04995) as the system for CC[C@H](C)[C@H](NC(=O)[C@H](CC(=O)O)NC(=O)[C@H](CC(=O)O)NC(=O)[C@H](CC(=O)O)NC(=O)[C@H](Cc1cccs1)NC(=O)[C@H](CC(=O)O)NC(C)=O)C(=O)N1CCC[C@H]1C(=O)N[C@@H](Cc1ccccc1)C(=O)O [Thi2] (Ac-D[2Thi]DDDIPF-OH)
4.22

Provide the documented IC50 with ExoI (Escherichia coli, UniProt P04995) as the system for CC[C@H](C)[C@H](NC(=O)[C@H](CC(=O)O)NC(=O)[C@H](CC(=O)O)NC(=O)[C@H](CC(=O)O)NC(=O)[C@H](Cc1ccccc1)NC(=O)[C@H](CC(=O)O)NC(C)=O)C(=O)N1CCC[C@@H]1C(=O)N[C@@H](Cc1ccccc1)C(=O)O [D-Pro7] (Ac-DFDDDI[dP]F-OH)
61.5

* * *

# target system: RecO (Escherichia coli)
# Construct: His-tag (TEV site) (N, cleaved yes); made in house; host or cells: E. coli Rosetta cells
# Sequence (P0A7H3 whole entry): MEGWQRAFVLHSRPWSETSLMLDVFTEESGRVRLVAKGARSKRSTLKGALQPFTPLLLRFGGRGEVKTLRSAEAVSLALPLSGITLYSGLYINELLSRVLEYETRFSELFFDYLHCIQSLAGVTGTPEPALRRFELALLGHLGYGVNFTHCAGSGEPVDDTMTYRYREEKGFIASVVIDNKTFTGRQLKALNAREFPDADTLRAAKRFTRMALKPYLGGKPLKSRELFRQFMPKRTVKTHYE
# test: biochemical
# Assay type: binding
# condition parameters: 0.5 μM RecO, 50 nM F-wtSSB tracer, 0–500 μM unlabeled peptide, 30 min room temperature; 20 mM Tris-HCl pH 8.0, 200 mM NaCl, 10% glycerol, 0.01% Triton-X 100; 25 °C; triplicate; read-out: IC50 on RecO, competitive fluorescence anisotropy
Where a SMILES comes first, the peptide text is derived from it. [ ]: non-standard residue; d: D form. Phe(4-Cl) = N[C@@H](Cc1ccc(Cl)cc1)C(=O)O; β3hD = NC(CC(=O)O)CC(=O)O
readout type: IC50

# IC50 lookup, item CC[C@H](C)[C@H](NC(=O)[C@H](CC(=O)O)NC(=O)[C@H](CC(=O)O)NC(=O)[C@H](CC(=O)O)NC(=O)[C@H](Cc1ccccc1)NC(=O)C[C@H](CC(=O)O)NC(C)=O)C(=O)N1CCC[C@H]1C(=O)N[C@@H](Cc1ccccc1)C(=O)O [β3-Asp1] (Ac-[β3hD]FDDDIPF-OH)
8.03 µM

# IC50 lookup, item CC[C@H](C)[C@H](NC(=O)[C@H](CC(=O)O)NC(=O)[C@H](CC(=O)O)NC(=O)C[C@H](CC(=O)O)NC(=O)[C@H](Cc1ccccc1)NC(=O)[C@H](CC(=O)O)NC(C)=O)C(=O)N1CCC[C@H]1C(=O)N[C@@H](Cc1ccccc1)C(=O)O [β3-Asp3] (Ac-DF[β3hD]DDIPF-OH)
8.92 µM

# IC50 lookup, item CC[C@H](C)[C@H](NC(=O)[C@H](CC(=O)O)NC(=O)[C@H](CC(=O)O)NC(=O)[C@H](CC(=O)O)NC(=O)[C@H](Cc1ccccc1)NC(=O)[C@H](CC(=O)O)NC(C)=O)C(=O)N1CCC[C@H]1C(=O)N[C@@H](Cc1ccc(Cl)cc1)C(=O)O [4-Cl-Phe8] (Ac-DFDDDIP[Phe(4-Cl)]-OH)
3.62 µM

# IC50 lookup, item CC[C@H](C)[C@H](NC(=O)[C@H](CC(=O)O)NC(=O)[C@H](CC(=O)O)NC(=O)[C@@H](CC(=O)O)NC(=O)[C@H](Cc1ccccc1)NC(=O)[C@H](CC(=O)O)NC(C)=O)C(=O)N1CCC[C@H]1C(=O)N[C@@H](Cc1ccccc1)C(=O)O [D-Asp3] (Ac-DF[dD]DDIPF-OH)
4.56 µM
